Data credit: patent US4272437A

system: Proteus rettgeri A21203; experiment: MIC, tube dilution, Proteus rettgeri A21203; assay type: cell-based; details: Providencia rettgeri; Proteus rettgeri A21203; overnight 37° C.; read-out: Minimum Inhibitory Concentration (M.I.C.)
Recorded MIC by entry
measurement type: MIC (µg/mL)

{"compound": "NCCC1=C(C(=O)O)N2C(=O)CC2S1 (centres unmarked)", "limit operator": "=", "assay value": 125}
{"compound": "CC1=C(C(=O)O)N2C(=O)[C@H]([C@H](O)Cc3ccccc3)[C@H]2S1 (relative stereo)", "limit operator": ">", "assay value": 125}
{"compound": "O=C([O-])C1=C(CO)S[C@@H]2CC(=O)N12.[Na+]", "limit operator": "=", "assay value": 32}
{"compound": "Cc1cc(CC2=C(C(=O)O)N3C(=O)CC3S2)on1 (centres unmarked)", "limit operator": "=", "assay value": 125}
{"compound": "O=C([O-])C1=C(c2cccnc2)S[C@@H]2CC(=O)N12.[Na+] [Example 53, Sodium 2-(3-Pyridyl)penem-3-carboxylate]", "limit operator": "=", "assay value": 2}
{"compound": "CC(C)OP(=O)(CCC1=C(C(=O)O)N2C(=O)CC2S1)OC(C)C (centres unmarked)", "limit operator": "=", "assay value": 125}
{"compound": "Cc1cc(C)n(CC2=C(C(=O)O)N3C(=O)CC3S2)n1 (centres unmarked)", "limit operator": ">", "assay value": 125}
{"compound": "CC[C@H](O)[C@H]1C(=O)N2C(C(=O)O)=C(C)S[C@H]12 (relative stereo)", "limit operator": ">", "assay value": 125}

* * *

Recorded MIC by entry
tested on: Klebsiella species A20468
measurement type: MIC

{"molecule": "CC1=C(C(=O)O)N2C(=O)[C@H](CNC=O)[C@H]2S1 (relative stereo)", "assayed system": "Klebsiella species A20468", "assay value": "63 µg/mL"}
{"molecule": "Cc1cc(C)n(CC2=C(C(=O)O)N3C(=O)CC3S2)n1 (centres unmarked)", "assayed system": "Klebsiella species A20468", "assay value": "> 125 µg/mL"}
{"molecule": "Nc1ccccc1CC1=C(C(=O)O)N2C(=O)CC2S1 (centres unmarked)", "assayed system": "Klebsiella species A20468", "assay value": "125 µg/mL"}
{"molecule": "O=C([O-])C1=C(Cc2ccccc2)S[C@@H]2CC(=O)N12.[Na+] [Preparation 21, Sodium 2-Benzylpenem-3-carboxylate]", "assayed system": "Klebsiella species A20468", "assay value": "125 µg/mL"}
{"molecule": "NCCCCC1=C(C(=O)O)N2C(=O)CC2S1 (centres unmarked)", "assayed system": "Klebsiella species A20468", "assay value": "> 125 µg/mL"}
{"molecule": "CC1=C(C(=O)O)N2C(=O)[C@H](C(C)(C)O)[C@H]2S1 (relative stereo)", "assayed system": "Klebsiella species A20468", "assay value": "> 125 µg/mL"}
{"molecule": "Cc1cc(CC2=C(C(=O)O)N3C(=O)CC3S2)on1 (centres unmarked)", "assayed system": "Klebsiella species A20468", "assay value": "> 125 µg/mL"}
{"molecule": "N[C@H]1C[C@@H](C2=C(C(=O)O)N3C(=O)C[C@H]3S2)C1", "assayed system": "Klebsiella species A20468", "assay value": "> 125 µg/mL"}
{"molecule": "C[C@@H](O)[C@H]1C(=O)N2C(C(=O)O)=C(CCCCN)S[C@H]12 (relative stereo)", "assayed system": "Klebsiella species A20468", "assay value": "4 µg/mL"}
{"molecule": "CC(C)(C)CC1=C(C(=O)O)N2C(=O)CC2S1 (centres unmarked)", "assayed system": "Klebsiella species A20468", "assay value": "> 125 µg/mL"}
{"molecule": "CSCC1=C(C(=O)O)N2C(=O)C[C@H]2S1", "assayed system": "Klebsiella species A20468", "assay value": "> 125 µg/mL"}
{"molecule": "CC(=O)NCCC1=C(C(=O)O)N2C(=O)CC2S1 (centres unmarked)", "assayed system": "Klebsiella species A20468", "assay value": "> 125 µg/mL"}
{"molecule": "O=C([O-])C1=C(Cc2ccco2)S[C@@H]2CC(=O)N12.[Na+]", "assayed system": "Klebsiella species A20468", "assay value": "> 125 µg/mL"}
{"molecule": "O=C(O)C1=C(CCC[N+](=O)[O-])SC2CC(=O)N12 (centres unmarked)", "assayed system": "Klebsiella species A20468", "assay value": "> 125 µg/mL"}
{"molecule": "N=C(NCC1=C(C(=O)O)N2C(=O)CC2S1)c1ccccc1 (centres unmarked)", "assayed system": "Klebsiella species A20468", "assay value": "> 125 µg/mL"}
{"molecule": "CCC(N)CC1=C(C(=O)O)N2C(=O)CC2S1 (centres unmarked)", "assayed system": "Klebsiella species A20468", "assay value": "> 32 µg/mL"}
{"molecule": "CC1=C(C(=O)O)N2C(=O)[C@H]([C@@H](C)N)[C@H]2S1 (relative stereo)", "assayed system": "Klebsiella species A20468", "assay value": "> 63 µg/mL"}
{"molecule": "CC1(C)OCC(C(N)C2=C(C(=O)O)N3C(=O)CC3S2)O1 (centres unmarked)", "assayed system": "Klebsiella species A20468", "assay value": "> 125 µg/mL"}
{"molecule": "CSC1C(=O)N2C(C(=O)O)=C(C)SC12 (centres unmarked)", "assayed system": "Klebsiella species A20468", "assay value": "> 125 µg/mL"}
{"molecule": "CC(N)=NCC1=C(C(=O)O)N2C(=O)CC2S1 (centres unmarked)", "assayed system": "Klebsiella species A20468", "assay value": "> 63 µg/mL"}
{"molecule": "CC1=C(C(=O)O)N2C(=O)[C@@H]([C@H](C)O)[C@H]2S1 (relative stereo)", "assayed system": "Klebsiella species A20468", "assay value": "63 µg/mL"}
{"molecule": "CSC(SC)C1=C(C(=O)O)N2C(=O)CC2S1 (centres unmarked)", "assayed system": "Klebsiella species A20468", "assay value": "> 125 µg/mL"}
{"molecule": "NCC1=C(C(=O)O)N2C(=O)CC2S1 (centres unmarked)", "assayed system": "Klebsiella species A20468", "assay value": "125 µg/mL"}
{"molecule": "CC1=C(C(=O)O)N2C(=O)C(C(C)(C)O)C2S1 (centres unmarked)", "assayed system": "Klebsiella species A20468", "assay value": "> 125 µg/mL"}
{"molecule": "NCc1ccc(C2=C(C(=O)O)N3C(=O)CC3S2)cc1 (centres unmarked)", "assayed system": "Klebsiella species A20468", "assay value": "> 125 µg/mL"}
{"molecule": "O=C(O)C1=C(c2cscn2)SC2CC(=O)N12 (centres unmarked)", "assayed system": "Klebsiella species A20468", "assay value": "> 125 µg/mL"}
{"molecule": "O=C(O)C1=C(C2CC2)SC2CC(=O)N12 (centres unmarked)", "assayed system": "Klebsiella species A20468", "assay value": "> 125 µg/mL"}
{"molecule": "O=C(O)C1=C(COc2ccccc2)S[C@@H]2CC(=O)N12", "assayed system": "Klebsiella species A20468", "assay value": "> 125 µg/mL"}
{"molecule": "C[C@@H](O)[C@H]1C(=O)N2C(C(=O)O)=C([C@H]3C[C@H](N)C3)S[C@H]12 (relative stereo)", "assayed system": "Klebsiella species A20468", "assay value": "0.5 µg/mL"}
{"molecule": "NCCCC1=C(C(=O)O)N2C(=O)CC2S1 (centres unmarked) [Example 22, Sodium 2-Aminopropylpenem-3-carboxylate]", "assayed system": "Klebsiella species A20468", "assay value": "> 125 µg/mL"}
{"molecule": "CC1=C(C(=O)O)N2C(=O)[C@H]([C@H](O)Cc3ccccc3)[C@H]2S1 (relative stereo)", "assayed system": "Klebsiella species A20468", "assay value": "> 125 µg/mL"}
{"molecule": "O=C(O)C1=C(CCCNO)SC2CC(=O)N12 (centres unmarked)", "assayed system": "Klebsiella species A20468", "assay value": "> 125 µg/mL"}
{"molecule": "O=C([O-])C1=C(c2ccccc2)S[C@@H]2CC(=O)N12.[Na+] [Preparation 7, Sodium 2-Phenylpenem-3-carboxylate]", "assayed system": "Klebsiella species A20468", "assay value": "> 125 µg/mL"}
{"molecule": "CC(N)C1=C(C(=O)O)N2C(=O)CC2S1 (centres unmarked)", "assayed system": "Klebsiella species A20468", "assay value": "> 125 µg/mL"}
{"molecule": "O=C(O)C1=C(CCCCN2C(=O)c3ccccc3C2=O)SC2CC(=O)N12 (centres unmarked)", "assayed system": "Klebsiella species A20468", "assay value": "> 125 µg/mL"}
